# Study system: T1, human Claudin18.2 (CLDN18.2) on the surface of CHO-K1-CLDN18.2 cells (human, UniProt P56856-2 1-261)
# T1 construct: whole, on cells; Membrane protein overexpressed on CHO-K1 cells; also called hCLDN18.2; antigen on the surface of CHO-K1-CLDN18.2 cell
# Experiment description: flow cytometry (FACS) on CHO-K1-CLDN18.2 cells
// reported EC50 per item
Measured metric: EC50

Binder	Measured metric	Observed result
humanized anti-human CLDN18.2 antibody 8C5.1H3L3 (antibody, human IgG1, kappa, V domains shown) VH: EVQLVESGGGLVKPGGSLRLSCAASGFTFSNSAVSWVRQAPGKGLEWVSSITSGVSYTYYADSVKGRFTISRDNAKNSLYLQMNSLRAEDTAVYYCTRQFKGNALDYWGQGTSVTVSS VL: DIVMTQSPSSLSVSPGERVTISCKSSQSLLNSGNQKNYLAWYQQKPGQPPKLLIYWASTRESGVPDRFSGSGSGTDFTLTISSLQAEDVAVYYCQNDYFYPLTFGAGTKLELKR	EC50	0.281 µg/mL
humanized anti-human CLDN18.2 antibody 8C5.1H2L2 (antibody, human IgG1, kappa, V domains shown) VH: EVQLVESGGGLVKPGGSLRLSCAASGFTFSNSAVSWVRQAPGKGLEWVSTITSGVSYTYYADSVKGRFTISRDNAKNSLYLQMNSLRAEDTAVYYCTRQFKGNALDYWGQGTSVTVSS VL: DIVMTQSPSSLSVSPGERVTISCKSSQSLLNSGNQKNYLTWYQQKPGQPPKLLIYWASTRESGVPDRFSGSGSGTDFTLTISSFQAEDVAVYYCQNDYFYPLTFGAGTKLELKR	EC50	0.234 µg/mL
humanized anti-human CLDN18.2 antibody 8C5.1H2L3 (antibody, human IgG1, kappa, V domains shown) VH: EVQLVESGGGLVKPGGSLRLSCAASGFTFSNSAVSWVRQAPGKGLEWVSTITSGVSYTYYADSVKGRFTISRDNAKNSLYLQMNSLRAEDTAVYYCTRQFKGNALDYWGQGTSVTVSS VL: DIVMTQSPSSLSVSPGERVTISCKSSQSLLNSGNQKNYLAWYQQKPGQPPKLLIYWASTRESGVPDRFSGSGSGTDFTLTISSLQAEDVAVYYCQNDYFYPLTFGAGTKLELKR	EC50	0.243 µg/mL
humanized anti-human CLDN18.2 antibody 8C5.1H1L2 (antibody, human IgG1, kappa, V domains shown) VH: EVQLVESGGGLVKPGGSLRLSCAASGFTFSNSAVSWVRQAPGKRLEWVATITSGVSYTYYLDSVRGRFTISRDNAKNSLYLQMNSLRAEDTAVYYCTRQFKGNALDYWGQGTSVTVSS VL: DIVMTQSPSSLSVSPGERVTISCKSSQSLLNSGNQKNYLTWYQQKPGQPPKLLIYWASTRESGVPDRFSGSGSGTDFTLTISSFQAEDVAVYYCQNDYFYPLTFGAGTKLELKR	EC50	0.242 µg/mL
humanized anti-human CLDN18.2 antibody 8C5.1H2L1 (antibody, human IgG1, kappa, V domains shown) VH: EVQLVESGGGLVKPGGSLRLSCAASGFTFSNSAVSWVRQAPGKGLEWVSTITSGVSYTYYADSVKGRFTISRDNAKNSLYLQMNSLRAEDTAVYYCTRQFKGNALDYWGQGTSVTVSS VL: DIVMTQSPSSLSVSPGERVTMSCKSSQSLLNSGNQKNYLTWYQQKPGQPPKLLIYWASTRESGVPDRFSGSGSGTDFTLTINSFQAEDVAVYYCQNDYFYPLTFGAGTKLELKR	EC50	0.267 µg/mL
humanized anti-human CLDN18.2 antibody 8C5.1H3L2 (antibody, human IgG1, kappa, V domains shown) VH: EVQLVESGGGLVKPGGSLRLSCAASGFTFSNSAVSWVRQAPGKGLEWVSSITSGVSYTYYADSVKGRFTISRDNAKNSLYLQMNSLRAEDTAVYYCTRQFKGNALDYWGQGTSVTVSS VL: DIVMTQSPSSLSVSPGERVTISCKSSQSLLNSGNQKNYLTWYQQKPGQPPKLLIYWASTRESGVPDRFSGSGSGTDFTLTISSFQAEDVAVYYCQNDYFYPLTFGAGTKLELKR	EC50	0.213 µg/mL
humanized anti-human CLDN18.2 antibody 8C5.1H1L1 (antibody, human IgG1, kappa, V domains shown) VH: EVQLVESGGGLVKPGGSLRLSCAASGFTFSNSAVSWVRQAPGKRLEWVATITSGVSYTYYLDSVRGRFTISRDNAKNSLYLQMNSLRAEDTAVYYCTRQFKGNALDYWGQGTSVTVSS VL: DIVMTQSPSSLSVSPGERVTMSCKSSQSLLNSGNQKNYLTWYQQKPGQPPKLLIYWASTRESGVPDRFSGSGSGTDFTLTINSFQAEDVAVYYCQNDYFYPLTFGAGTKLELKR	EC50	0.216 µg/mL
positive control antibody IMAB362 (antibody, human IgG1, kappa, V domains shown, Human-murine chimeric antibody; produced by Akeso Biopharma Inc; also called Claudiximab; zolbetuximab) VH: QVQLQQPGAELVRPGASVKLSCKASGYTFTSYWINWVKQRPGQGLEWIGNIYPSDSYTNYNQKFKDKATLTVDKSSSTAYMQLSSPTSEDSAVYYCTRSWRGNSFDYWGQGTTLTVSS VL: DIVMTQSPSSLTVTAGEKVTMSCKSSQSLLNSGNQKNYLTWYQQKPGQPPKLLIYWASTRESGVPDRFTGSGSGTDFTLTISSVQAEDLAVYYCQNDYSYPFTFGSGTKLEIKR	EC50	0.358 µg/mL
